Target: GPR3 (Homo sapiens, UniProt P46089)
Construct: expressed in transfected cells; host or cells: CHO cells
Sequence (P46089 whole entry, species assumed): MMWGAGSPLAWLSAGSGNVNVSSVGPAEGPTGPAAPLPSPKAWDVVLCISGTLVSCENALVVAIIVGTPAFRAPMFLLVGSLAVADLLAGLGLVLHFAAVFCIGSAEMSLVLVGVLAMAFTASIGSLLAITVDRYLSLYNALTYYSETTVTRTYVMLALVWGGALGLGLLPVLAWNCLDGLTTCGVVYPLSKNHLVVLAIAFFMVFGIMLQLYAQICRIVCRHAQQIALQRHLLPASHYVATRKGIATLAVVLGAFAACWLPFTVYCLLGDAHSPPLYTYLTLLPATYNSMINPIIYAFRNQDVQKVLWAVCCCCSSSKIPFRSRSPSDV
Assay: GPR3 antagonist functional cAMP assay (LANCE Ultra cAMP TR-FRET, CHO cells stably expressing GPR3)
Assay type: cell-based
Settings: CHO cells stably expressing GPR3, cAMP assay
IC50 values, listed per item

{"compound": "CC(=O)N1CCc2nc(N3CCC(Oc4ccc(F)cc4F)CC3)c(/C=C3/CCOC3)nc2C1", "assay_target": "GPR3 (Homo sapiens, UniProt P46089)", "IC50": "1000 to 30000 nM"}
{"compound": "CC(=O)N1CCc2nc(N3CCN(Cc4cc(F)ccc4F)CC3)c(-c3cnn(C)c3)nc2C1", "assay_target": "GPR3 (Homo sapiens, UniProt P46089)", "IC50": "1000 to 30000 nM"}
{"compound": "CC(=O)N1CCc2nc(N3CCN(Cc4cn(C)cn4)CC3)c(-c3cnn(C)c3)nc2C1", "assay_target": "GPR3 (Homo sapiens, UniProt P46089)", "IC50": "≥ 30000 nM"}
{"compound": "CC(=O)N1CCc2nc(N3CCN(Cc4cnn(C)c4)CC3)c(-c3cnn(C)c3)nc2C1", "assay_target": "GPR3 (Homo sapiens, UniProt P46089)", "IC50": "100 to 1000 nM"}
{"compound": "CC(C)(O)C(O)c1cc2nc(-c3cnn(CF)c3)c(N3CCN(Cc4ccc(F)cc4F)CC3)nc2cn1 (single isomer, unassigned) [Compound 602]", "assay_target": "GPR3 (Homo sapiens, UniProt P46089)", "IC50": "100 to 1000 nM"}
{"compound": "CC(C)(O)C(O)c1cc2nc(-c3cnn(C(F)F)c3)c(N3CCN(Cc4ccc(F)cc4F)CC3)nc2cn1 (single isomer, unassigned) [Compound 585]", "assay_target": "GPR3 (Homo sapiens, UniProt P46089)", "IC50": "100 to 1000 nM"}
{"compound": "CC(=O)N1CCc2nc(N3CCC(Oc4ccc(F)cc4F)CC3)c(C3CCN(CC(F)(F)F)CC3)nc2C1", "assay_target": "GPR3 (Homo sapiens, UniProt P46089)", "IC50": "1000 to 30000 nM"}
